Tgt: LATS1 (Homo sapiens)
Sequence (O95835 1-1130): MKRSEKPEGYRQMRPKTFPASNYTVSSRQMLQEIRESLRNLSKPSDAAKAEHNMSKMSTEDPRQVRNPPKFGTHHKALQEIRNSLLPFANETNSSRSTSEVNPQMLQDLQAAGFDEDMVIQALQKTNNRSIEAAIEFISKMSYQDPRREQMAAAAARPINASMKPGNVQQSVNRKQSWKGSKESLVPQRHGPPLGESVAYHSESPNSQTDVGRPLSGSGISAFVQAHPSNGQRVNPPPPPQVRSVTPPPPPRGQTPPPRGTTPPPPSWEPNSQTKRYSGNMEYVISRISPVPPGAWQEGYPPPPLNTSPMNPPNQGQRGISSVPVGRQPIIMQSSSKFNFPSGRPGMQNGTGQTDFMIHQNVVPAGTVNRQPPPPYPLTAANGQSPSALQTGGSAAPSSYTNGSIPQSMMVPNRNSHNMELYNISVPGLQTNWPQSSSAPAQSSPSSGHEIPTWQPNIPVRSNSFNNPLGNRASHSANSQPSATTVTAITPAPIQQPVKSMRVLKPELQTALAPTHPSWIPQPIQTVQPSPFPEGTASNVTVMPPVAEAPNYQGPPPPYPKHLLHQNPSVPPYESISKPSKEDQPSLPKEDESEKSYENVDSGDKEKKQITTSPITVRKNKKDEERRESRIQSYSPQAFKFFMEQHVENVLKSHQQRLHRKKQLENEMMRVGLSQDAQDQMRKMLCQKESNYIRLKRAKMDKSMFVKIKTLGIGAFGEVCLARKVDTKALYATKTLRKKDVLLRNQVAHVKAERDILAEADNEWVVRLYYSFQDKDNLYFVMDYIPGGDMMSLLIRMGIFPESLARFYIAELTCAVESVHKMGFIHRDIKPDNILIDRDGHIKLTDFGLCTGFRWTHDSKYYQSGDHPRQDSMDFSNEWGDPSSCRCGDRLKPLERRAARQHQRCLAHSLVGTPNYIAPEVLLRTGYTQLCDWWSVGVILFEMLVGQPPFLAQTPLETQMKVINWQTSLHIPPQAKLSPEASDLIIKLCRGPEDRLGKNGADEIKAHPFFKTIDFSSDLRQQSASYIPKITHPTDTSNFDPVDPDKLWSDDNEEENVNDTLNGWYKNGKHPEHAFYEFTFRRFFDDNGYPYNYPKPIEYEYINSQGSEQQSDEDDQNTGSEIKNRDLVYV
Experiment notes: RBC HotSpot kinase assay (33P-ATP, P81 filter-binding), LATS1
Assay type: biochemical
Cond: Table 28, biochemical kinase assay; read-out: LATS1 IC50
Assay readout: pIC50
By convention, pIC50 is the negative base-10 log of a molar concentration.

// pIC50 lookup, molecule = `COC(=O)C1(c2ccc(-c3ccnc4[nH]cc(F)c34)cc2Cl)CCNCC1` , result: 8.13

The measured pIC50 associated with `C[C@@H]1CN(C)C[C@H](C)[C@@]1(O)c1cnc(-c2ccnc3[nH]cc(F)c23)cc1Cl` reads 8.96

Lookup result for `Cc1cc(-c2ccnc3[nH]cc(F)c23)cc(Cl)c1[C@@]1(O)[C@H](C)CNC[C@@H]1C` ; measured pIC50: 6.70

Kindly note the recorded pIC50 for `O=C([C@@H]1CCCN1)N1CC(O)(c2ccc(-c3ccnc4[nH]cc(F)c34)cc2Cl)C1` , which is 7.30

Hey, just so you know, these numbers are from patent US20250361230A1.
